experimental target: T1, soluble cynomolgus TNFR2 (cynomolgus, UniProt A0A2K5VET2 132-366)
T1 sequence: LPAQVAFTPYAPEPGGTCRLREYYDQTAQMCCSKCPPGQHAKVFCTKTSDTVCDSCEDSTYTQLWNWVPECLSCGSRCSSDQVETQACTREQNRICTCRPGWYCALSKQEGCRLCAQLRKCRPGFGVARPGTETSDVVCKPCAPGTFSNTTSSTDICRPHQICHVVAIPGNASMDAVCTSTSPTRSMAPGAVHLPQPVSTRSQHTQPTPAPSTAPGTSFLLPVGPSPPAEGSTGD
method: competition ELISA: plate-bound soluble cynomolgus TNFR2, competitor biotinylated TNFα; IC50 relative to unlabelled TNFα = 1.00
Relative IC50 by entry:
The reply should contain only the number, in nM.

1. chimeric SBT-002 (antibody, V domains shown, also called chSBT-002) VH: QVTLKESGPGILQPSQTLSLTCSFSGFSLSTSGMGVGWIRQPSGKGLEWLAHIWWDDDKFYNPSLKSQLTISKDTSRNQVFLKLTSVVTADTATYYCARLTGTRYFDYWGQGTTLTVSS VL: DVQMTQSPSSLSASLGGKVTITCKASQDINKFIAWYQHKPGKGPRLLIHYTSTLQPGIPSKFSGSGSGRDYSFSISNLEPEDIATYYCLQYGNLWTFGGGTKLEIT
2.87
2. SBT-002 (antibody, V domains shown, Parental mouse antibody; also called mouse SBT-002) VH: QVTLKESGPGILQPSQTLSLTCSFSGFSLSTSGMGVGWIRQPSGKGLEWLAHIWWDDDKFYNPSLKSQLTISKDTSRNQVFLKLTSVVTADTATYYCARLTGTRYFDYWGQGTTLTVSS VL: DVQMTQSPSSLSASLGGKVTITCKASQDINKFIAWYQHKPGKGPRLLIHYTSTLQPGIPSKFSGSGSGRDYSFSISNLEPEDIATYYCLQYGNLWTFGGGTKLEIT
2.04

Q: What value of Relative IC50 has been reported for the following binder? chimeric SBT-004b (antibody, human IgG1, V domains shown, Same heavy chain as chSBT-004 (human IgG1 Fc domain); also called chSBT-004b) VH: EVQLQQSGPEVGRPGSSVKISCKASGYTFTDYIMHWVKQSPGQGLEWIGWVDPEYGSTDYAEKFKKKATLTADTSSNTAYIQLSSLTSEDTATYFCARDDGSYSPFDYWGQGVMVTVSS VL: NIVMTQSPKSMSMSVGERVTLTCKASENVVTYVSWYQQKPEQSPKLLIYGASNRYTGVPDRFTGSGSATDFTLTISSVQAEDLADYHCGQGYSYPYTFGGGTKLEIK
Ans: 1.57

Q: Quick check: Relative IC50 of chimeric SBT-004 (antibody, V domains shown, VH fused to a human IgG1 Fc domain; also called chSBT-004) VH: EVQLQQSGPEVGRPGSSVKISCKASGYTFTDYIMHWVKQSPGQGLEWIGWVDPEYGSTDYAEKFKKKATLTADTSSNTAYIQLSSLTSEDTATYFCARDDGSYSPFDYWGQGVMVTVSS VL: DIQMTQSPPSLSASLGDKVTITCQASQNINKYIAWYQQKPGKAPRLLIRYTSTLESGTPSRFSGSGSGRDYSFSISNVESEDIASYYCLQYVNLLTFGAGTKLEIK ?
Ans: 3.22
